# Tested on: SW-620
# MEASUREMENT DESCRIPTION: NCI tumour cell line growth inhibition, 48 h
Active and inactive are the calls of the source. No stated cut-off is given here; in the data, active = GI50 up to about 1.1 µM and inactive = higher.
The categories you may choose from are Y for active, N for inactive

Study these solved cases before continuing.
[in] How was "CN(C)C(=O)c1nnsc1NN=O" classified in this test?
[out] N

[in] How was "Cc1nc(C(=O)O)c2ccccc2n1" classified in this test?
[out] N

[in] How was "O=C1C(c2c(O)[nH]c3ccccc23)=Nc2ccc(Br)cc21" classified in this test?
[out] N

[in] How was CCOC(=O)CCC(C(=O)OCC)n1nnc2ccc(Nc3c(C)[n+]([O-])c4cc(F)c(OCC)cc4[n+]3[O-])cc21 (centres undefined) classified in this test?
[out] N

[in] How was O=C1CC(c2cccc(Br)c2)n2cccc21 (centres undefined) classified in this test?
[out] N

New cases:
[in] How was "CCCCOC(=O)NC(=O)c1cn(CCCOC(=O)CCCCCCCCC(=O)OCCCn2cc(C(=O)NC(=O)OCCCC)c(=O)n(C)c2=O)c(=O)n(C)c1=O" classified in this test?
[out] N

[in] How was CCOC(=O)c1c(-c2ccc(O)c(OC)c2)c(C#N)c(=S)n(C2OC(CO)C(O)C(O)C2O)c1-c1ccccc1 (centres undefined) classified in this test?
[out] N

[in] How was "Cc1cc(-c2ccc(C(=O)O)[nH]2)on1" classified in this test?
[out] N

[in] How was "C/C(=N\NC(=O)c1ccccc1O)c1cccc(/C(C)=N/NC(=O)c2ccccc2O)n1" classified in this test?
[out] N

[in] How was "Nc1ccccc1CCCC(=O)O" classified in this test?
[out] N

[in] How was COC(=O)C1=C(O)C(C(=O)OC)[C@]2(O)[C@H](C(=O)OC)[C@H]1C[C@@H](c1ccc(Cl)cc1Cl)[C@H]2C(=O)OC (some centres undefined) classified in this test?
[out] N

[in] How was "N=C(N)NC(=N)Nc1ccccc1.Sc1nc2ccccc2s1" classified in this test?
[out] N

[in] How was "Cc1ccc(C)c(C(=N)c2ccccc2Cc2ccccc2)c1" classified in this test?
[out] N

[in] How was CC(=O)Nc1c2sscc-2n(C)c1=O [THIOLUTIN] classified in this test?
[out] Y

[in] How was "Cc1ccc(-c2nc3c(C(=O)NCCN(C)C)cccc3[nH]2)cc1" classified in this test?
[out] N

[in] How was CO/C1=C\C(C)=C\C(C)C(O)C(C)C/C(C)=C/C=C/C(OC)C(C(C)C(O)C(C)C2(O)CC(O)C(C)C(C(C)C)O2)OC1=O (centres undefined) classified in this test?
[out] Y

[in] How was "Cc1ccc(S(=O)(=O)NC(=O)NS(=O)(=O)O)cc1" classified in this test?
[out] N

[in] How was "CCc1nc(N)nc(N)c1-c1ccc([N+](C)(C)C)cc1" classified in this test?
[out] N

[in] How was O=C1C2CCN(CC2)C1CN1CCOCC1 (centres undefined) classified in this test?
[out] N

----------
# System: UACC-62
# MEASUREMENT DESCRIPTION: NCI tumour cell line growth inhibition, 48 h
The source made the active and inactive calls. Rule as the data show it: active = GI50 up to about 1.1 µM and inactive = higher.
// values below are reported GI50

Solved cases (4 shown):
[in] Form field - read-out: GI50; system: UACC-62; submitted item: N#CC1=C(N)N(/N=C/c2ccccc2)C(c2ccccc2)C1(C#N)C#N (stereo not given)
[out] 13.5 µM (inactive)

[in] Form field - read-out: GI50; system: UACC-62; submitted item: "Oc1c(Br)c(-c2ccccc2)nc2ccccc12"
[out] 21.9 µM (inactive)

[in] Form field - read-out: GI50; system: UACC-62; submitted item: "Cc1cc(S(=O)(=O)Nc2nc3ccsc3c(=O)n2N)c(S)cc1Cl"
[out] 38.7 µM (inactive)

[in] Form field - read-out: GI50; system: UACC-62; submitted item: "Cc1ccc(C)c(C(=N)c2ccccc2Cc2ccccc2)c1"
[out] 14.2 µM (inactive)

Please examine the following record next.
[in] Form field - read-out: GI50; system: UACC-62; submitted item: "COc1ccc(C(=O)c2c(C(C(=O)c3ccc(OC)cc3)C(=O)c3ccc(OC)cc3)n(C(=O)c3ccc(OC)cc3)c3ccccc23)cc1"
[out] > 100 µM (inactive)
